Reference for the values: a melting point compilation (Tetko et al.; mined from patent text by program, amines drawn as free bases though some values may be those of a salt)

This section presents compounds with their documented melting point values.

INSERT INTO assay_data (compound, measurement_kind, result) VALUES
  ('COC(=O)C1CCC2C3CCC4CC(O)CCC4(C)C3C(N)CC12C (centres undefined)', 'melting point', '113 to 116 °C');

What does the data say about its melting point? Entry: O=c1c2cccnc2c(-c2cccc([N+](=O)[O-])c2)nn1-c1ccccc1
167 °C

What does the data say about its melting point? Entry: CC(C)(C)c1ccc(Sc2ccc(C=C3SC(=S)NC3=O)cc2)cc1
211 to 212 °C

What does the data say about its melting point? Entry: Cc1c(F)c(F)c(C(N)=O)c(F)c1F
157 to 158 °C

What does the data say about its melting point? Entry: COc1ccc2nc(NC(=O)C(CC3CCCC3)c3ccc(S(=O)(=O)NCc4ccccc4F)cc3)sc2n1 (centres undefined)
238 to 240 °C

What does the data say about its melting point? Entry: [N-]=[N+]=Nc1cnn(-c2cc(-c3ccnc(Nc4cccc(Cl)c4)n3)ccn2)c(=O)c1Cl
184 to 186 °C

What does the data say about its melting point? Entry: CC(C)C[C@H](NC(=O)OCC1c2ccccc2-c2ccccc21)C(=O)N[C@H]1CCOC1OCc1ccccc1 (some centres undefined)
116 to 117 °C

What does the data say about its melting point? Entry: COC(=O)c1cc(Cl)c(C)c(N)c1Cl
53 to 55 °C

What does the data say about its melting point? Entry: Fc1cccc(-c2nc(Nc3ccc(Cl)cc3)c3ccccc3n2)n1
118 to 121 °C
